# measurement_description: Toxic dose determined in rats using MES test procedure. (Phase VIA)
# Type: toxicity
# test_settings: rat, in vivo
Measured TD50 values are reported for all entries that follow.

• COC(=O)[C@@H]1C(=O)C=C(Nc2ccc(Cl)cc2)C[C@H]1C = > 380 mg/kg

Shifting focus to the compound that follows.
So, COC(=O)[C@@H]1C(=O)C=C(Nc2ccc(OC(F)(F)F)cc2)C[C@H]1C ? Its TD50 was > 158 mg/kg

----------
Measured Anticonvulsant activity values are reported for all entries that follow.
# System: Mus musculus
# measurement_description: Anticonvulsant activity was determined; 2 indicates at doses greater than 100 mg/kg in mice
# Format: functional
Lab note: record the figure alone, no unit after it.

# annotated cases, reported Anticonvulsant activity shown
* COC(=O)[C@@H]1C(=O)C=C(Nc2ccccc2[N+](=O)[O-])C[C@H]1C | 2
* COC(=O)[C@@H]1C(=O)C=C(Nc2ccccc2F)C[C@H]1C | 2
* CCOC(=O)[C@@H]1C(=O)C=C(Nc2ccc(Cl)c(Cl)c2)C[C@H]1C | 2
* COC(=O)[C@@H]1C(=O)C=C(Nc2ccccc2C(F)(F)F)C[C@H]1C | 2
* CCOC(=O)[C@@H]1C(=O)C=C(Nc2ccc(Cl)c(Cl)c2Cl)C[C@H]1C | 2
* COC(=O)[C@@H]1C(=O)C=C(NNc2ccccc2)C[C@H]1C | 2
* CCOC(=O)[C@@H]1C(=O)C=C(Nc2cc(Cl)c(Cl)c(Cl)c2)C[C@H]1C | 2
* COC(=O)[C@@H]1C(=O)C=C(Nc2cc(C)ccc2OC)C[C@H]1C | 2

Simply: COC(=O)[C@@H]1C(=O)C=C(Nc2ccccc2C#N)C[C@H]1C , Mus musculus, Anticonvulsant activity = 2

Simply: COC(=O)[C@@H]1C(=O)C=C(Nc2cc(OC)ccc2Cl)C[C@H]1C , Mus musculus, Anticonvulsant activity = 2

----------
# tested_system: Sodium channel alpha subunits; brain (Types I, II, III) (Rattus norvegicus, UniProt P04775+P04774+P08104)
# measurement_description: Inhibition of [3H]BTX-B binding to neurotoxin site 2 of sodium channel of rat cerebral cortex synaptoneurosomes
# Type: tissue-based
Please note: IC50 exactly at 200 µM is class 0. Only values below 200 µM get class 1.

Would you kindly verify if IC50 of CN1C(=O)CN=C(c2ccccc2)c2cc(Cl)ccc21 is strictly less than 200 µM?
class 1

Would you kindly verify if IC50 of Nc1nnc(-c2cccc(Cl)c2Cl)c(N)n1 is strictly less than 200 µM?
class 1

----------
Measured IC50 values are reported for all entries that follow.
# tested_system: Sodium channel alpha subunits; brain (Types I, II, III) (Rattus norvegicus, UniProt P04775+P04774+P08104)
# measurement_description: Inhibition of [3H]BTX-B binding to neurotoxin site 2 of sodium channel of rat cerebral cortex synaptoneurosomes
# Assay type: tissue-based
Numeric answer only, unit µM assumed.

# annotated cases, reported IC50 shown
• CCC1(c2ccccc2)C(=O)NC(=O)NC1=O = 2.5
• COC(=O)[C@@H]1C(=O)C=C(Nc2ccc(OC(F)(F)F)cc2)C[C@H]1C = 170

Shifting focus to the compound that follows.
So, COC(=O)[C@@H]1C(=O)C=C(Nc2ccc(Cl)cc2)C[C@H]1C ? Its IC50 was 489

These data points were gathered from ChEMBL document CHEMBL1128458.
